Target: acetylcholinesterase (AChE) (Homo sapiens, UniProt P22303)
Construct: purchased Sigma 9000-81-1 (so in the source); this is the CAS number of acetylcholinesterase, not a catalogue number
Sequence (P22303 32-614): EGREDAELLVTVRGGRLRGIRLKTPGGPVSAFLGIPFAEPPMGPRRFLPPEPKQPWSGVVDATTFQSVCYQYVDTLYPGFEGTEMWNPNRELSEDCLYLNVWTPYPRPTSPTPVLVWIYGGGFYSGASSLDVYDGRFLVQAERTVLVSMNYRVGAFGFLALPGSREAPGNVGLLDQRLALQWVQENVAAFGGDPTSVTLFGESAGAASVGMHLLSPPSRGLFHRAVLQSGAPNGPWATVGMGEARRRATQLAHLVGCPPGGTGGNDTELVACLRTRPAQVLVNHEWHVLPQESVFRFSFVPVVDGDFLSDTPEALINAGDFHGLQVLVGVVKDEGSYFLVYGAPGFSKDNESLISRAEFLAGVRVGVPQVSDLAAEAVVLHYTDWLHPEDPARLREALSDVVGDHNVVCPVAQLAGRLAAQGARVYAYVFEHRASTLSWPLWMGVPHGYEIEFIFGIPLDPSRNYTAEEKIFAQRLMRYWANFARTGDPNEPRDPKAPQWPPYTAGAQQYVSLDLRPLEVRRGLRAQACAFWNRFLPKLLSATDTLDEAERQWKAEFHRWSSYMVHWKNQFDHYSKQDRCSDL
Experiment: biochemical
Conditions: printed without unit in text / Figure 2; read-out: AChE IC50
Recorded pIC50 values for a group of compounds are listed next.
The read-out pIC50 is expressed as -log10 of concentration in moles per litre.

# annotated cases, reported pIC50 shown
Give me measured pIC50, please, for this compound: O=C1N/C(=N/c2nnc(-c3ccc4[nH]ncc4c3)s2)S/C1=C/c1cccc(F)c1 [Compound 16]
5.92

// Input: O=C1N/C(=N/c2nnc(-c3ccc4[nH]ncc4c3)s2)S/C1=C/c1cccc(Br)c1 [Compound 11] . Output its pIC50 only.
4.57

---
Give the value of pIC50 reported for the following: Cc1cc(Br)cc(/C=C2/S/C(=N\c3nnc(-c4ccc5[nH]ncc5c4)s3)NC2=O)c1 [Compound 12]
4.60
